glycan array binding signal (z-score) for assorted binders
- measured target: Man(a1-2)Man(a1-6)[Man(a1-3)]Man(a1-6)[Man(a1-2)Man(a1-2)Man(a1-3)]Man
- test: glycan array binding signal (z-score within array); higher = stronger binding
- assay setup: glycan notation: IUPAC condensed, linker removed
About 410 targets per protein were measured; listed, in parts, are those with the strongest signals and a random draw of the rest.
Returns: the value as a bare number; no unit string appended.

// worked examples, glycan array binding signal (z-score) included
| binder | glycan array binding signal (z-score) |
| --- | --- |
| BC2L-D C-terminal domain (Burkholderia cenocepacia), Q39MQ9_BURS3 (protein) LVIVDAVTLLSAYPEASRDPAAPTVIDGRHLYVVSPGDAAQLGHNDSRLFTGLSPGDQLHLRETALALRAEVSVLFIRFALKDAGIVAPIELEVRDAATAVPDADDLLHPSCRPLKDHYWRSDVLAAGATTCTADFAVCDRDGTVSGYFRWETSIEIAGSQPDTKQPGFKPSSDRNGNFSLPPNTAFKAIFYANAADRQDLKLFIDDAPEPAATFVGNSEDGVRLFTLNSKGGKIRIEASANGRQSATDARLAPLSAGDTVWLGWLGAEDGADADYNDGIVILQWPIT | 5.62 |
| GST Gap3 (Streptococcus parasanguinis) (protein) MTKQLISEIYWNEIRKGENYLYGSQIKFQEDLVNFYNPQLASGKPIVTFKSRTNYQGDRHSPDLPILIQGNRYLLEYQIDAVPANSFFLQLDFFNRQAEQIESIVLRNSGESFIFPKDTFTYTLTLMSAGCQSVTYQKFMIYDINDEEKKNHIVENRYLRELLPKDLDLVKNLIEYI | -0.335 |
| FimA-N3 (Actinomyces oris) (protein) MHHHHHHSSGVDLGTENLYFQSNAGLQGAQFQLYKAKNAYANTCSNEKEGAPIAINGQTTLTTDAQGAIDIKGLFISDSIDGADRDNQVNAMERCYVLVETKAPAGYVLPAGNGAATPVKVKAGEETTDN | -0.315 |

Turning to the following binder.
INPUT: State the recorded glycan array binding signal (z-score) for this entry: Gz-CVNH (Gibberella zeae) (protein) MGSSHHHHHHSSGLVPRGSHMGNFHESSNNIWLEDGHILHAECGNGEGDYVESTLDLDYYIGNDDGSFSWGGENFSGSASNITLDIEGDDNIPVLRAELNPMDGDPVEANVNLSERIGNDCGTLIFLA
OUTPUT: 9.9
